molecular target: human GRP receptor (human, UniProt P30550 1-384); assay: cell-based or functional assay
Sequence (P30550 whole entry): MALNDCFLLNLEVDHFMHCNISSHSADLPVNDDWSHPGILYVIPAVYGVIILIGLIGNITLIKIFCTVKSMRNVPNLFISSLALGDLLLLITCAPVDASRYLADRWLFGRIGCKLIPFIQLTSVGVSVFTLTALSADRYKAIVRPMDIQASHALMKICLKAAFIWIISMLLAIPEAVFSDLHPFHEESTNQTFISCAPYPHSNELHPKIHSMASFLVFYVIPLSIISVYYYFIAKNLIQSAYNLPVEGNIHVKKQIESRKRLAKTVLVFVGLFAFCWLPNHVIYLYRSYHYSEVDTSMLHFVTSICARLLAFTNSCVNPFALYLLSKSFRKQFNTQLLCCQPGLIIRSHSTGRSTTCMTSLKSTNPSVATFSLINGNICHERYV
Starred links: 1 amine or outer side, 2 acyl side, 3 side chain; linkers in the order of their positions; H or OH if unused. Non-standard residues stand in square brackets, D forms with d. *: point of attachment. Trp(7-F) = N[C@@H](Cc1c[nH]c2c(F)cccc12)C(=O)O; d(γGlu) = O=C(O)[C@@H](CCC(=O)[*:2])N[*:1]; C18 diacid = O=C(O)CCCCCCCCCCCCCCCCC(=O)*; γGlu = O=C(O)[C@H](CCC(=O)[*:2])N[*:1]; Palmitoyl = CCCCCCCCCCCCCCCC(=O)*; Nle = CCCC[C@H](N)C(=O)O; AEEA = NCCOCCOCC(=O)O; Aib = CC(C)(N)C(=O)O
Measured hIP1 GRPR EC50 by item
// units = nM; emit number, no label

The measured hIP1 GRPR EC50 associated with Palmitoyl-[d(γGlu)][AEEA][AEEA]GEHWAV[Aib]HL[Nle]-NH2 (SMILES CCCCCCCCCCCCCCCC(=O)N[C@H](CCC(=O)NCCOCCOCC(=O)NCCOCCOCC(=O)NCC(=O)N[C@@H](CCC(=O)O)C(=O)N[C@@H](Cc1c[nH]cn1)C(=O)N[C@@H](Cc1c[nH]c2ccccc12)C(=O)N[C@@H](C)C(=O)N[C@H](C(=O)NC(C)(C)C(=O)N[C@@H](Cc1c[nH]cn1)C(=O)N[C@@H](CC(C)C)C(=O)N[C@@H](CCCC)C(N)=O)C(C)C)C(=O)O) [Peptide 24] reads 183

The measured hIP1 GRPR EC50 associated with {C18 diacid}-[γGlu][AEEA][AEEA][AEEA][AEEA]GAH[Trp(7-F)]AV[dA]HL[Nle]-NH2 (SMILES CCCC[C@H](NC(=O)[C@H](CC(C)C)NC(=O)[C@H](Cc1c[nH]cn1)NC(=O)[C@@H](C)NC(=O)[C@@H](NC(=O)[C@H](C)NC(=O)[C@H](Cc1c[nH]c2c(F)cccc12)NC(=O)[C@H](Cc1c[nH]cn1)NC(=O)[C@H](C)NC(=O)CNC(=O)COCCOCCNC(=O)COCCOCCNC(=O)COCCOCCNC(=O)COCCOCCNC(=O)CC[C@H](NC(=O)CCCCCCCCCCCCCCCCC(=O)O)C(=O)O)C(C)C)C(N)=O) [Peptide 136] reads 40.5
